Tested on: CAKI-1 renal
Assay notes: NCI-60 one-dose screen, 48 h (100 = growth as untreated, 0 = no growth, -100 = all killed)
Assay context: 10 µM unless noted
About 83,000 compounds went through this panel and 20% of them were active in at least one assay; those are over-represented in the sample as a whole.
Endpoint label: growth (%)
Give the number; % is assumed, so skip it.

Consider `COc1ccccc1/C=C1\Oc2cc(OCCCN3CCCC3)ccc2C1=O` . Its measured growth is 77.8

Consider `O=C(Nc1cccc(C2=NCCN2)c1)c1ccc(OCCCOc2ccc(C(=O)Nc3cccc(C4=NCCN4)c3)cc2)cc1` . Its measured growth is 65.1

Consider `NC(=S)N/N=C/c1ccc(OC(=O)COc2cc(Cl)c(Cl)cc2Cl)cn1` . Its measured growth is 36.4

Consider `O=C(CN1CCOCC1)Nc1ccc2ncnc(Nc3ccc(OCc4cccc(F)c4)c(Cl)c3)c2c1` . Its measured growth is 45.8

Consider `O=c1[nH]nc(-c2ccc(Cl)cc2)cc1Cc1cccc([N+](=O)[O-])c1` . Its measured growth is 80.8

Consider `CCNNC(=O)[C@@H]1[C@H](c2cc(OC)c(OC)c(OC)c2)c2cc3c(cc2[C@H](O)[C@H]1CO)OCO3` . Its measured growth is 29.3

Consider `COc1ccc(-c2nc(N/N=C/c3c[nH]c4ccccc34)nc(N3CCOCC3)c2C#N)cc1` . Its measured growth is 98

Consider `COc1ccc(/C=C/c2n[nH]c3ccc(N4CCOC4=O)cc23)cc1` . Its measured growth is 4.59

Consider `CC(C)(C#N)N1CCN(c2ccccc2Cl)CC1` . Its measured growth is 94.5

Consider `CCCCCCCCOc1ccc(/C=N/Nc2cc(C)nc3ccc(Cl)cc23)cc1` . Its measured growth is 41.6

Consider CC1=CC2(C)/C=C(C)/C=C\CC(O)/C=C3/C=CC(=C4C(=O)OC2(CC1C)C4=O)OC3 (centres undefined) . Its measured growth is -89.5

Consider `COc1ccc(/C=N/NC(=O)c2cccc3cc[nH]c23)cc1O` . Its measured growth is 46.5

Consider `COc1cc(CNC(=O)CCCCC[P+](c2ccccc2)(c2ccccc2)c2ccccc2)c(OC)c2c1OCO2` . Its measured growth is 89.4

Consider `CCC(=O)c1ccc(O)c(OC)c1` . Its measured growth is 100

Consider `COc1ccc(/C=C2\COc3ccc(-c4ccccc4)cc3C2=O)cc1O` . Its measured growth is 126

Consider `Cc1c2c(cc[n+]1Cc1ccccc1)c1ccc(OCc3ccccc3)cc1n2Cc1ccccc1` . Its measured growth is -5.76

Consider `Clc1nc(Cl)c2ncn(CC3(Cn4cnc5c(Cl)nc(Cl)nc54)COC3)c2n1` . Its measured growth is -87.8

Consider `COc1ccc(/C=C(/c2ccccc2)[N+](=O)[O-])cc1` . Its measured growth is -88.3

Consider CC(C)(O)C1CCCN1C(=O)c1ccccc1I (centres undefined) . Its measured growth is 88.2

Consider `Cc1cn(-c2cc(C(=O)Nc3cccc(C#Cc4cccc5[nH]nc(N)c45)c3)cc(C(F)(F)F)c2)cn1` . Its measured growth is 79.6

Consider COc1cc(C2CC(c3cccc(Nc4ccncc4)c3)=NN2c2cc(Cl)cc(Cl)c2)cc(OC)c1OC (centres undefined) . Its measured growth is 8.57

Consider `COc1ccc(CC(C)=C(c2ccc(OCCN(C)C)cc2)c2ccc(OCCN(C)C)cc2)cc1` . Its measured growth is 84

Consider `Cc1cccc(C)c1-c1cc(Cc2ccc(Cl)cc2)c(=O)[nH]n1` . Its measured growth is 146

Consider `COc1cccc(CCC(=O)c2cc3c(N)c(C(=O)Nc4cccc(Cl)c4C)sc3nc2C)c1` . Its measured growth is 20.5

Consider `O=C1/C(=C\c2cn(Cc3ccccc3)c3ccc(Br)cc23)c2ccccc2N1c1c(Cl)cccc1Cl` . Its measured growth is 83

Consider `CCOc1ccc(/C=N/Nc2cc(C)nc3ccc(Cl)cc23)cc1` . Its measured growth is 78.2

Consider CC(C)Cc1ccc(C(C)C(=O)NCc2ccc(Cn3c(=O)sn(-c4ccc(Cl)cc4)c3=O)cc2)cc1 (centres undefined) . Its measured growth is 74.7

Consider `O=C(N/N=C/c1cccc(O)c1)c1ccccc1Nc1cccc(C(F)(F)F)c1` . Its measured growth is 36.9

Consider `CCCOc1nc(SCCC)nc2c1cnn2-c1ccccc1` . Its measured growth is 105
